Molecular target: 2-Hydroxyacid oxidase 2 (Rattus norvegicus) (UniProt Q07523)
Sequence (whole entry): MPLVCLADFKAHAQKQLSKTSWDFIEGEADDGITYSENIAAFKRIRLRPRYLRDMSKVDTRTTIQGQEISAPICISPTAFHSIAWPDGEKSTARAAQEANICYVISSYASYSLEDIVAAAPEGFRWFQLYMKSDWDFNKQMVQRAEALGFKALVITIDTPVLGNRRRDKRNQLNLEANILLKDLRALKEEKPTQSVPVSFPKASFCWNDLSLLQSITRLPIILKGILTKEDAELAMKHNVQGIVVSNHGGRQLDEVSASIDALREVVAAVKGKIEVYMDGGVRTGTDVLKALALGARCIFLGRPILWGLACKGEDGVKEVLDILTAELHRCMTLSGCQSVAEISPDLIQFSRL
Test: Inhibition of rat Hao2-mediated oxidation of 2-hydroxyoctanoic acid assessed as proportionate release of H2O2 at 10 uM
recordedMetric: inhibition (%)

Known inhibition results, listed for orientation:
Cc1n[nH]c(C(=O)O)c1Cc1cccc(C(=O)O)c1
60
Cc1n[nH]c(C(=O)O)c1CCc1ccc(F)cc1
81
Cc1nn(C)c(C(=O)O)c1Cc1cccc(-c2ccc(F)cc2)c1
10
Cc1n[nH]c(C(=O)O)c1Cc1ccc(C(F)(F)F)cc1
71
Cc1n[nH]c(C(=O)O)c1Cc1ccccc1-c1ccc(F)cc1
73

P: Cc1n[nH]c(C(=O)O)c1Cc1ccc(C#N)cc1
Q: CNC(=O)c1[nH]nc(C)c1Cc1cccc(-c2ccc(F)cc2)c1
IN: Look at P and Q . Which one has the lower recorded inhibition number? Kindly give the label for the entry you pick.
OUT: Q

A: Cc1n[nH]c(C(=O)O)c1Cc1ccc(C(=O)O)cc1
B: Cc1n[nH]c(C(=O)NS(C)(=O)=O)c1Cc1cccc(-c2ccc(F)cc2)c1
C: Cc1n[nH]c(C(=O)Nc2nnn[nH]2)c1Cc1cccc(-c2ccc(F)cc2)c1
IN: Hello, I need these entries ordered by inhibition, highest reading first. Thanks! Answer format: the labels, in the requested order.
OUT: A, C, B
(A: 69%, C: 9%, B: 3%)

* * *

Target: 2-Hydroxyacid oxidase 2 (Rattus norvegicus) (UniProt Q07523)
Assay: Inhibition of rat Hao2-mediated oxidation of 2-hydroxyoctanoic acid assessed as proportionate release of H2O2 at 1 uM
recordedMetric: inhibition (%)

Cc1n[nH]c(C(=O)Nc2nnn[nH]2)c1Cc1cccc(-c2ccc(F)cc2)c1
0
Cc1n[nH]c(C(=O)O)c1-c1ccc(F)cc1
1
Cc1n[nH]c(C(=O)NS(C)(=O)=O)c1Cc1cccc(-c2ccc(F)cc2)c1
0
Cc1n[nH]c(C(=O)O)c1Cc1ccc(C(F)(F)F)cc1
35
Cc1n[nH]c(C(=O)O)c1Cc1ccc(C#N)cc1
33
Cc1n[nH]c(C(=O)O)c1-c1cccc(-c2ccc(F)cc2)c1
35
Cc1n[nH]c(C(=O)O)c1Cc1ccc(C(=O)O)cc1
40
Cc1n[nH]c(C(=O)O)c1-c1ccc(-c2ccc(F)cc2)cc1
13

I: CNC(=O)c1[nH]nc(C)c1Cc1cccc(-c2ccc(F)cc2)c1
II: Cc1nn(C)c(C(=O)O)c1Cc1cccc(-c2ccc(F)cc2)c1
IN: Pick one: I or II . Which has the bigger inhibition number? Kindly give the label for the entry you pick.
OUT: I
(I: 9%, II: 4%)

P: Cc1c(Cc2cccc(-c3ccc(F)cc3)c2)c(C(=O)O)nn1C
Q: Cc1n[nH]c(C(=O)O)c1Cc1cccc(C(=O)O)c1
R: Cc1n[nH]c(C(=O)O)c1Cc1cc2ccccc2o1
S: Cc1n[nH]c(C(=O)O)c1CCc1ccc(F)cc1
IN: Rank the items in ascending order with respect to inhibition. Answer format: the labels, in the requested order.
OUT: Q, P, S, R

I: Cc1n[nH]c(C(=O)O)c1Cc1ccccc1Oc1ccccc1
II: Cc1n[nH]c(C(=O)O)c1Cc1ccccc1-c1ccc(F)cc1
IN: Look at I and II . Which one has the lower recorded inhibition number? Kindly give the label for the entry you pick.
OUT: I
